Assay: In vitro stability in human whole blood
Format: in vitro ADME
Conditions: male, whole blood diluted to 50% with PBS, pH 7.4, human whole blood, 37° C., positive control, read-out: half life
endpoint_name: half-life at 5 µM

> print(dat)
                                   compound      endpoint.name  value.measured
1  CC(C)[N+](C)(CCOC(=O)C1c2ccccc2Oc2ccccc21)C(C)C [Propantheline, reference compound]  half-life at 5 µM          1.63 h

* * *

Biological target: KRas G12C (Homo sapiens, UniProt P01116, G12C)
Sequence (P01116 1-188 isoform P01116-2 G12C): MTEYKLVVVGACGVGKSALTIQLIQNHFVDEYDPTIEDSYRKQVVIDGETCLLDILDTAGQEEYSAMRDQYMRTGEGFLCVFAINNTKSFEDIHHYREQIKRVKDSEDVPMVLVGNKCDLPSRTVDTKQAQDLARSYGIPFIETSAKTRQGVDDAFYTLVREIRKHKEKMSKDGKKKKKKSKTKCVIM
Assay: Cellular inhibition of KRas G12C measured by Phospho-ERK in NCI-H358 cells
Type: cell-based
Conditions: pERK(Thr202/Tyr204) normalized with GAPDH, NCI-H358 cells, 3 hours; read-out: IC50
endpoint_name: IC50

> print(dat)
                                   compound  endpoint.name  value.measured
1  C=CC(=O)N1CCN(c2ncnc3c2CCN(c2cccc4ccccc24)C3)CC1 [Example 3]           IC50       > 1000 nM
2  C=CC(=O)N1CCN(c2nc(OC[C@@H]3CCCN3C)nc3c2CCN(c2cccc4ccc(F)cc24)C3)C[C@@H]1CC#N [Example 333]           IC50  0.1 to 1000 nM
3  Cc1cccc2cccc(N3CCc4c(nc(OC[C@@H]5C[C@@H](F)CN5C)nc4N4CCN(C(=O)/C=C/CF)[C@@H](CC#N)C4)C3)c12 [Example 578]           IC50  0.1 to 1000 nM
4  CN1CCC[C@@H]1COc1nc2c(c(N3CCN(C(=O)/C=C/CF)[C@@H](CC#N)C3)n1)CCN(c1cccc3cccc(Cl)c13)C2 [Example 586]           IC50  0.1 to 1000 nM
5  C=CC(=O)N1CCN(c2nc(OC[C@H]3CN(C)CCN3)nc3c2CCN(c2cccc4ccccc24)C3)CC1CC#N (stereo partly shown) [Example 224]           IC50  0.1 to 1000 nM
6  C=CC(=O)N1CCN(c2nc(OC[C@@H]3CCC(=O)N3)nc3c2CCN(c2cc(O)cc4ccccc24)C3)CC1 [Example 57]           IC50       > 1000 nM
7  C=CC(=O)N1CC2(C1)CN(c1nc(OCCN(C)C)nc3c1CCN(c1cc(O)cc4ccccc14)C3)C2 [Example 16]           IC50       > 1000 nM
